Cited source: patent US8865623B2

- System: Echinochloa crus-galli (ECHCG)
- assay.method.text: Pre-emergence herbicidal activity, glasshouse pot test
- Type: in vivo
- experimental.context: Echinochloa crus-galli, 312 h; Rate 250 g/ha; pre-emergence spray; evaluated after 13 days; read-out: Pre-emergence activity ECHCG (100=total damage to plant; 0=no damage to plant)
measured.metric: pest or weed control at 250 g/ha (%)
Give the quantity in %, number only.

{"smiles.notation": "CCc1ccc(Oc2ccc([N+](=O)[O-])c(Cl)c2)cc1C1=C(O)[C@@H]2CC[C@](C)(C1=O)C2(C)C", "measured.metric": "pest or weed control at 250 g/ha", "reading.unit": "%", "recorded.measurement": 100}
{"smiles.notation": "CCc1ccc(Oc2ccc(Br)cc2)cc1C1=C(O)CCCC1=O", "measured.metric": "pest or weed control at 250 g/ha", "reading.unit": "%", "recorded.measurement": 100}
{"smiles.notation": "CCc1ccc(Oc2ccc(Cl)c(C(F)(F)F)c2)cc1C1=C(O)C(C)(C)OC(C)(C)C1=O", "measured.metric": "pest or weed control at 250 g/ha", "reading.unit": "%", "recorded.measurement": 60}
{"smiles.notation": "CCc1ccc(Oc2ccc(F)cc2Cl)cc1C1=C(O)CCCC1=O", "measured.metric": "pest or weed control at 250 g/ha", "reading.unit": "%", "recorded.measurement": 40}

Next compound, pest or weed control at 250 g/ha to be filled in.
[in] Request: pest or weed control at 250 g/ha, test system Echinochloa crus-galli (ECHCG), entry `CCc1ccc(Oc2nc3ccccc3s2)cc1C1=C(O)C(C)(C)OC(C)(C)C1=O`
[out] 100

----------
- System: Alopecurus myosuroides (ALOMY)
- assay.method.text: Pre-emergence herbicidal activity, glasshouse pot test
- Assay type: in vivo
- experimental.context: Alopecurus myosuroides, 312 h; Rate 250 g/ha; pre-emergence spray; evaluated after 13 days; read-out: Pre-emergence activity ALOMY (100=total damage to plant; 0=no damage to plant)
pest or weed control at 250 g/ha values for the compounds below.
Enter the number, and then the unit.

The cases that follow already have their pest or weed control at 250 g/ha on record.
{"smiles.notation": "CCc1ccc(Oc2nc3ccccc3s2)cc1C1=C(O)C(C)(C)OC(C)(C)C1=O", "pest or weed control at 250 g/ha": "70%"}
{"smiles.notation": "CCc1ccc(Oc2ncc(Cl)cn2)cc1C1=C(O)CC(C)(C)CC1=O", "pest or weed control at 250 g/ha": "90%"}

Next compound, pest or weed control at 250 g/ha to be filled in.
[in] Entry `CCc1ccc(Oc2ccc(Cl)cc2Cl)cc1C1=C(O)CCC(C)(C)C1=O` : reported pest or weed control at 250 g/ha = ?
[out] 10%

----------
- System: Echinochloa crus-galli (ECHCG)
- assay.method.text: Pre-emergence herbicidal activity, glasshouse pot test
- Format: in vivo
- experimental.context: Echinochloa crus-galli, 312 h; Rate 250 g/ha; pre-emergence spray; evaluated after 13 days; read-out: Pre-emergence activity ECHCG (100=total damage to plant; 0=no damage to plant)
pest or weed control at 250 g/ha values for the molecules below.
Give the quantity in %, number only.

The cases that follow already have their pest or weed control at 250 g/ha on record.
{"smiles.notation": "CCc1ccc(Oc2ncc(Cl)cc2C(F)(F)F)cc1C1=C(O)CC2(CCOCC2)CC1=O", "pest or weed control at 250 g/ha [%]": 100}
{"smiles.notation": "CCc1ccc(Oc2ccc(C(F)(F)F)c(C#N)c2)cc1C1=C(O)CC(C)(C)CC1=O", "pest or weed control at 250 g/ha [%]": 70}
{"smiles.notation": "CCc1ccc(Oc2ccc(C(F)(F)F)c(C#N)c2)cc1C1=C(O)[C@H]2CC[C@H](C2)C1=O", "pest or weed control at 250 g/ha [%]": 100}

[in] Entry `CCc1ccc(Oc2ccc(Br)cc2F)cc1C1=C(O)[C@H]2CC[C@H](C2)C1=O` : reported pest or weed control at 250 g/ha = ?
[out] 90

[in] Same question, `CCc1ccc(Oc2ccc([N+](=O)[O-])c(Cl)c2)cc1C1=C(O)CC2(CCOCC2)CC1=O` this time
[out] 100

[in] Same question, `CCc1ccc(Oc2nc3ccc(Cl)cc3s2)cc1C1=C(O)[C@H]2CC[C@H](C2)C1=O` this time
[out] 100

[in] Same question, `CCc1ccc(Oc2ccc(F)cc2F)cc1C1=C(O)CC(C)(C)CC1=O` this time
[out] 90

[in] Same question, `CCc1ccc(Oc2ncc(C(F)(F)F)cc2Cl)cc1C1=C(O)[C@H]2CC[C@H](C2)C1=O` this time
[out] 100

[in] Same question, `CCc1ccc(Oc2ccc3ccccc3n2)cc1C1=C(O)[C@@H]2CC[C@](C)(C1=O)C2(C)C` this time
[out] 100

[in] Same question, `CCc1ccc(Oc2ccc(C#N)cc2C(F)(F)F)cc1C1=C(O)C(C)(C)OC(C)(C)C1=O` this time
[out] 100

[in] Same question, `CCc1ccc(Oc2ccc(Br)cc2F)cc1C1=C(O)C(C)(C)OC(C)(C)C1=O` this time
[out] 100

[in] Same question, `CCc1ccc(Oc2c(F)cc(C#N)cc2F)cc1C1=C(O)C(C)(C)OC(C)(C)C1=O` this time
[out] 40

[in] Same question, `CCc1ccc(Oc2ccc(Cl)cc2)cc1C1=C(O)CC(C)(C)CC1=O` this time
[out] 100

[in] Same question, `CCc1ccc(Oc2ccc([N+](=O)[O-])c(Cl)c2)cc1C1=C(O)CC(C)(C)CC1=O` this time
[out] 100

[in] Same question, `CCc1ccc(Oc2ccc3ccccc3n2)cc1C1=C(O)C(C)(C)OC(C)(C)C1=O` this time
[out] 100

[in] Same question, `CCc1ccc(Oc2ccc3cc(Cl)ccc3n2)cc1C1=C(O)CC2(CCOCC2)CC1=O` this time
[out] 90

----------
- Test system: Alopecurus myosuroides (ALOMY)
- assay.method.text: Post-emergence herbicidal activity, glasshouse pot test
- Format: in vivo
- experimental.context: Alopecurus myosuroides, 312 h, rate 250 g/ha, evaluated after 13 days, glasshouse, read-out: Post-emergence activity ALOMY (100=total damage to plant; 0=no damage to plant)
- Protocol: Seeds of a variety of test species were sown in standard soil in pots. […] After 13 days for pre and post-emergence, the test was evaluated (100=total damage to plant; 0=no damage to plant). […]
pest or weed control at 250 g/ha values for the compounds below.
Give the quantity in %, number only.

The cases that follow already have their pest or weed control at 250 g/ha on record.
{"compound": "CCc1ccc(Oc2cnc3ccccc3n2)cc1C1=C(O)C(C)(C)OC(C)(C)C1=O", "measured.on": "Alopecurus myosuroides (ALOMY)", "pest or weed control at 250 g/ha [%]": 100}
{"compound": "CCc1ccc(Oc2ccc(F)cc2)cc1C1=C(O)CC2(CCOCC2)CC1=O", "measured.on": "Alopecurus myosuroides (ALOMY)", "pest or weed control at 250 g/ha [%]": 80}
{"compound": "CCc1ccc(Oc2cc(C)ccn2)cc1C1=C(O)C(C)(C)OC(C)(C)C1=O", "measured.on": "Alopecurus myosuroides (ALOMY)", "pest or weed control at 250 g/ha [%]": 40}
{"compound": "CCc1ccc(Oc2ccc3ccccc3n2)cc1C1=C(O)C(C)(C)OC(C)(C)C1=O", "measured.on": "Alopecurus myosuroides (ALOMY)", "pest or weed control at 250 g/ha [%]": 100}
{"compound": "CCc1ccc(Oc2ccc(Br)cc2Cl)cc1C1=C(O)CC2(CCOCC2)CC1=O", "measured.on": "Alopecurus myosuroides (ALOMY)", "pest or weed control at 250 g/ha [%]": 90}
{"compound": "CCc1ccc(Oc2ncc(Cl)cc2Cl)cc1C1=C(O)CC(C)(C)CC1=O", "measured.on": "Alopecurus myosuroides (ALOMY)", "pest or weed control at 250 g/ha [%]": 100}

[in] Entry CCc1ccc(Oc2ccc(Cl)cc2Cl)cc1C1=C(O)[C@@H]2CC[C@](C)(C1=O)C2(C)C (single isomer, unassigned) : reported pest or weed control at 250 g/ha = ?
[out] 10

[in] Same question, `CCc1ccc(Oc2ccc(Br)cc2)cc1C1=C(O)[C@@H]2CC[C@](C)(C1=O)C2(C)C` this time
[out] 80

[in] Same question, `CCc1ccc(Oc2nc(Cl)c(Cl)cc2Cl)cc1C1=C(O)C(C)(C)OC(C)(C)C1=O` this time
[out] 20

[in] Same question, `CCc1ccc(Oc2nc3ccc(F)cc3nc2Cl)cc1C1=C(O)C(C)(C)OC(C)(C)C1=O` this time
[out] 0

----------
- System: Alopecurus myosuroides (ALOMY)
- assay.method.text: Pre-emergence herbicidal activity, glasshouse pot test
- Format: in vivo
- experimental.context: Alopecurus myosuroides, 312 h; Rate 250 g/ha; pre-emergence spray; evaluated after 13 days; read-out: Pre-emergence activity ALOMY (100=total damage to plant; 0=no damage to plant)
measured.metric: pest or weed control at 250 g/ha (%)
Give the quantity in %, number only.

The cases that follow already have their pest or weed control at 250 g/ha on record.
{"smiles.notation": "CCc1ccc(Oc2ccc(C#N)c(C#N)c2)cc1C1=C(O)C(C)(C)OC(C)(C)C1=O", "measured.metric": "pest or weed control at 250 g/ha", "recorded.measurement": 40}
{"smiles.notation": "CCc1ccc(Oc2cc(F)c(C#N)c(F)c2)cc1C1=C(O)C(C)(C)OC(C)(C)C1=O", "measured.metric": "pest or weed control at 250 g/ha", "recorded.measurement": 30}

Next molecule, pest or weed control at 250 g/ha to be filled in.
[in] Request: pest or weed control at 250 g/ha, test system Alopecurus myosuroides (ALOMY), entry `CCc1ccc(Oc2cc(F)ccc2C#N)cc1C1=C(O)C(C)(C)OC(C)(C)C1=O`
[out] 0
